experimental.target: Substance-K receptor (Homo sapiens)
Sequence (P21452 whole entry): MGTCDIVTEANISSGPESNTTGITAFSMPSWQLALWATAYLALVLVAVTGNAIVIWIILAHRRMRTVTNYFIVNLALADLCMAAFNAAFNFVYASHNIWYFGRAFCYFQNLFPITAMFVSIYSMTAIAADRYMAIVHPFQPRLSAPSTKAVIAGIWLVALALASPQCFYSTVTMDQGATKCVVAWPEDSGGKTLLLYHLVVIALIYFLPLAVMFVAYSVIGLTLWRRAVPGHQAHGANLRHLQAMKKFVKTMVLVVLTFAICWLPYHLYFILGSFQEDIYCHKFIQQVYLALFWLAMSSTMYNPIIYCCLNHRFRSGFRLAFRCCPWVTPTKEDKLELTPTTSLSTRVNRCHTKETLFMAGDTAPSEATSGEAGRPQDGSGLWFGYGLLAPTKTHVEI
protocol.text: Binding affinity test against Neurokinin 2 (NK2) receptor
pKi: −log10 of the molar value.
experimental.endpoint: pKi

(P) CO/N=C(\COCc1ccc(F)c2ccccc12)C(CCN1CCC(O)(c2ccccc2)CC1)c1ccc(Cl)c(Cl)c1 (stereo not given)
(Q) CO/N=C(\COCc1cc(Cl)cc(Cl)c1)C(CCN1CCC(O)(c2ccccc2)CC1)c1ccc(Cl)c(Cl)c1 (stereo not given)
(R) CO/N=C(\COCc1ccc2ccccc2c1)C(CCN1CCC(O)(c2ccccc2)CC1)c1ccc(Cl)c(Cl)c1 (stereo not given)
(S) CO/N=C(\CNCc1cc(C(F)(F)F)cc(C(F)(F)F)c1)C(CCN1CCC(O)(c2ccccc2)CC1)c1ccc(Cl)c(Cl)c1 (stereo not given)
[Q] List the molecules shown above again, sorted by falling pKi values. List labels; respect the requested ordering.
[A] Q, R, P, S
